The values you see were collected from ChEMBL document CHEMBL3286298.

assay: Cmax in Kunming mouse blood at 48 mmol/g, iv administered as single dose by HPLC analysis; format: ADME, organism-based; parameters: dose 48 mmol/g, route intravenous
assayReadout: Cmax (ng/mL)
Kindly answer with a numeric value in ng/mL, unit omitted.

Reported Cmax, compound CC(C)Cc1ccc(C(C)C(=O)O)cc1 (stereo unspecified) : ____
28400

###

Form field: K (one value per entry).
assay: Chemical stability of compound in phosphate buffer assessed as first order rate constant of disappearance of drug at pH 7.88 by HPLC analysis; type: physicochemical
Kindly answer with a numeric value in ×10⁻² /hr, unit omitted.

The examples below pair each entry with its known result.
C/C(=C(\CCOC(=O)C(C)c1ccc(CC(C)C)cc1)SSCc1ccccc1)N(C=O)CC(=O)OCC(OC(=O)C(C)c1ccc(CC(C)C)cc1)C1OC(=O)C(O)=C1O (centres undefined) = 6.87
CC(C)Cc1ccc(C(C)C(=O)OCC(O)C2OC(=O)C(O)=C2O)cc1 (centres undefined) = 8.42
CC(C)Cc1ccc(C(C)C(=O)OC(CO)C2OC(=O)C(O)=C2O)cc1 (centres undefined) = 7.15

Lab note: next compound to report on.
Reported K, compound CC(C)Cc1ccc(C(C)C(=O)OCC(OC(=O)C(C)c2ccc(CC(C)C)cc2)C2OC(=O)C(O)=C2O)cc1 (centres undefined) : ____
8.65

###

experiment: Mean residence time in Kunming mouse blood at 48 mmol/g, iv administered as single dose by HPLC analysis; type: ADME, organism-based
assayReadout: MRT

Reported MRT, compound CC(C)Cc1ccc(C(C)C(=O)O)cc1 (stereo unspecified) : ____
78.9 h

###

test: Chemical stability of compound in phosphate buffer assessed as half life at pH 7.33 by HPLC analysis; type: physicochemical
assayReadout: half-life

CC(C)Cc1ccc(C(C)C(=O)OC(CO)C2OC(=O)C(O)=C2O)cc1 (centres undefined) = 16.1 h
C/C(=C(\CCOC(=O)C(C)c1ccc(CC(C)C)cc1)SSCc1ccccc1)N(C=O)CC(=O)OCC(OC(=O)C(C)c1ccc(CC(C)C)cc1)C1OC(=O)C(O)=C1O (centres undefined) = 16.2 h
CC(C)Cc1ccc(C(C)C(=O)OCC(OC(=O)C(C)c2ccc(CC(C)C)cc2)C2OC(=O)C(O)=C2O)cc1 (centres undefined) = 12.4 h

Lab note: next molecule to report on.
Reported half-life, molecule CC(C)Cc1ccc(C(C)C(=O)OCC(O)C2OC(=O)C(O)=C2O)cc1 (centres undefined) : ____
14.8 h

###

assay: Chemical stability of compound in phosphate buffer assessed as first order rate constant of disappearance of drug at pH 7.33 by HPLC analysis; type: physicochemical
assayReadout: K (×10⁻² /hr)
Kindly answer with a numeric value in ×10⁻² /hr, unit omitted.

The examples below pair each entry with its known result.
CC(C)Cc1ccc(C(C)C(=O)OCC(O)C2OC(=O)C(O)=C2O)cc1 (centres undefined) = 4.67
CC(C)Cc1ccc(C(C)C(=O)OCC(OC(=O)C(C)c2ccc(CC(C)C)cc2)C2OC(=O)C(O)=C2O)cc1 (centres undefined) = 5.58
C/C(=C(\CCOC(=O)C(C)c1ccc(CC(C)C)cc1)SSCc1ccccc1)N(C=O)CC(=O)OCC(OC(=O)C(C)c1ccc(CC(C)C)cc1)C1OC(=O)C(O)=C1O (centres undefined) = 4.27

Lab note: next compound to report on.
Reported K, compound CC(C)Cc1ccc(C(C)C(=O)OC(CO)C2OC(=O)C(O)=C2O)cc1 (centres undefined) : ____
4.3
